Tested on: rat hepatocytes
Measurement protocol: cells
Type: cell-based
Condition parameters: Rattus norvegicus, Hepatocyte, 24 h, 24 h treatment, read-out: Survival IC50
Listed here are molecules together with their documented IC50.
Measure name: IC50

>>> print(df.to_string())
                                   molecule  measure_name  reported_value
0  COc1cc2c(c(N3CCN(C)CC3)c1)O[C@@H](C(=O)Nc1ccc(N3CCOCC3)c(F)c1)CC2          IC50        > 300 µM
1  Cc1ccc(N2CCN(C)CC2)c2c1CC[C@@H](NC(=O)c1ccc(N3CCOCC3)cc1)C2          IC50          159 µM
2  CCN(CCO)CCCC(C)Nc1ccnc2cc(Cl)ccc12 (stereo not drawn) [Hydroxychloroquine, reference compound]          IC50          220 µM
3  O=C(O)Cc1ccccc1Nc1c(Cl)cccc1Cl [Diclofenac, reference compound]          IC50          832 µM
4        CCCc1cccc2c(N)c(C(=O)NCC3CC3)nnc12          IC50        > 300 µM
5                       Nc1ccc(N2CCOCC2)cc1          IC50        > 300 µM

----------
Item-by-item account of IC50
Tested on: rat hepatocytes
Measurement protocol: cells
Assay type: cell-based
Condition parameters: 24 h treatment, read-out: Survival IC50
Measure name: IC50 (µM)

In [3]: df
Out[3]:
                                   molecule  measure_name  result_comparator  reported_value
0  Cc1ccc(N2CCN(C)CC2)c2c1CC[C@@H](NC(=O)c1ccc(N3CCOCC3)cc1)C2 [NMTMB]          IC50                  =             148
1  CCN(CCO)CCCC(C)Nc1ccnc2cc(Cl)ccc12 (centres unmarked) [Hydroxychloroquine, reference compound]          IC50                  >             300
